tested on: Candida albicans; test: Antimicrobial activity against Candida albicans assessed as growth inhibition by disk diffusion method; format: functional
Measure: MIC (µg/mL)
Give the value, in units of µg/mL, as a plain number.

Input line: Which MIC value is on record for O=C(/C=C/c1ccc[nH]1)c1ccsc1 ?
Output line: 40

Input line: Param item: CCc1ccc(/C=C/C(=O)c2cc(C)oc2C)o1
Output line: 40

Input line: Param item: Cc1cc(C(=O)/C=C/c2ccc[nH]2)c(C)o1
Output line: 30

Input line: Param item: COc1ccc(/C=C/C(=O)c2ccsc2)cc1
Output line: 30

Input line: Param item: Cc1cc(C(=O)/C=C/c2ccc(-c3ccccc3)cc2)c(C)o1
Output line: 20

Input line: Param item: O=C(/C=C/c1c[nH]c2ccccc12)c1ccsc1
Output line: 30

Input line: Param item: CCc1ccc(/C=C/C(=O)c2ccsc2)o1
Output line: 20

Input line: Param item: O=C(/C=C/c1ccc(-c2ccccc2)cc1)c1ccsc1
Output line: 30

Input line: Param item: Cc1cc(C(=O)/C=C/c2c[nH]c3ccccc23)c(C)o1
Output line: 40

Input line: Param item: COc1ccc(/C=C/C(=O)c2cc(C)oc2C)cc1
Output line: 30
